# assay.system: HLA-A*29:02
# test: IEDB peptide-MHC binding, purified MHC/competitive/radioactivity; filed as Kd, often an IC50 or EC50 that approximates it; bounds were set here for any values at or beyond the usual limits of such assays
# condition: source organism: Mammarenavirus whitewaterense
pKd: −log10 of the molar value.

{"residue.string": "WDIKDPSLL", "pKd": "≤ 4.56"}

====

# assay.system: HLA-B*44:02
# test: IEDB peptide-MHC binding, purified MHC/direct/fluorescence; filed as Kd, often an IC50 or EC50 that approximates it; bounds were set here for any values at or beyond the usual limits of such assays
# condition: source organism: Giardia lamblia ATCC 50803
pKd: −log10 of the molar value.
Known pKd of a selection of sequences

{"residue.string": "SVKERGPAY", "pKd": "≤ 4.70"}
{"residue.string": "RPRGHREFC", "pKd": "≤ 4.70"}

====

# assay.system: HLA-A*02:11
# test: IEDB peptide-MHC binding, purified MHC/competitive/fluorescence; filed as Kd, often an IC50 or EC50 that approximates it; bounds were set here for any values at or beyond the usual limits of such assays
# condition: source organism: Mycobacterium tuberculosis variant bovis BCG str. Pasteur 1173P2
pKd: −log10 of the molar value.
reported.endpoint: pKd

{"residue.string": "AEDLADHHV", "assay.system": "HLA-A*02:11", "reported.endpoint": "pKd", "val": 7.88}

====

# assay.system: HLA-B*44:02
# test: IEDB peptide-MHC binding, purified MHC/direct/fluorescence; filed as Kd, often an IC50 or EC50 that approximates it; bounds were set here for any values at or beyond the usual limits of such assays
# condition: source organism: Mammarenavirus lassaense
pKd: −log10 of the molar value.
reported.endpoint: pKd

{"residue.string": "KHDEEFCDM", "reported.endpoint": "pKd", "val": "≤ 4.70"}

====

# assay.system: HLA-B*45:06
# test: IEDB peptide-MHC binding, purified MHC/competitive/fluorescence; filed as Kd, often an IC50 or EC50 that approximates it; bounds were set here for any values at or beyond the usual limits of such assays
# condition: source organism: human gammaherpesvirus 4
pKd: −log10 of the molar value.

{"residue.string": "YAMAIRQAI", "pKd": "≤ 5.30"}
{"residue.string": "MMAKSNSPF", "pKd": "≤ 5.30"}

====

# assay.system: HLA-A*11:01
# test: IEDB peptide-MHC binding, purified MHC/competitive/fluorescence; bounds were set here for any values at or beyond the usual limits of such assays
# condition: source organism: Variola virus

{"residue.string": "IPLASLTPK", "IC50 (µM)": 6.66}

====

# assay.system: HLA-A*03:01
# test: IEDB peptide-MHC binding, purified MHC/direct/fluorescence; filed as Kd, often an IC50 or EC50 that approximates it; bounds were set here for any values at or beyond the usual limits of such assays
# condition: source organism: Influenza A virus H3N2
pKd: −log10 of the molar value.

{"residue.string": "AVDADDSHF", "pKd": "≤ 4.70"}

====

# assay.system: HLA-A*11:01
# test: IEDB peptide-MHC binding, purified MHC/competitive/fluorescence; bounds were set here for any values at or beyond the usual limits of such assays
# condition: source organism: Sudan ebolavirus

{"residue.string": "QLPRDKFRK", "IC50 [nM]": 723}
{"residue.string": "VIAFLILAK", "IC50 [nM]": 564}

====

# assay.system: HLA-B*07:02
# test: IEDB peptide-MHC binding, purified MHC/direct/fluorescence; filed as Kd, often an IC50 or EC50 that approximates it; bounds were set here for any values at or beyond the usual limits of such assays
# condition: source organism: Yersinia enterocolitica

{"residue.string": "RIYSHIAPY", "Kd": "≥ 20 µM"}

====

# assay.system: HLA-A*24:02
# test: IEDB peptide-MHC binding, purified MHC/direct/fluorescence; filed as Kd, often an IC50 or EC50 that approximates it; bounds were set here for any values at or beyond the usual limits of such assays
# condition: source organism: Amur virus
pKd: −log10 of the molar value.

{"residue.string": "ESPSSIWVF", "pKd": 8.24}

====

# Kd annotations
# assay.system: HLA-B*07:02
# test: IEDB peptide-MHC binding, purified MHC/direct/fluorescence; filed as Kd, often an IC50 or EC50 that approximates it; bounds were set here for any values at or beyond the usual limits of such assays
# condition: source organism: Escherichia coli O157:H7

{"residue.string": "RPPRRGDKF", "unit.abbrev": "nM", "qualifier.operator": "=", "Kd": 223}
{"residue.string": "RGRGVAIHR", "unit.abbrev": "nM", "qualifier.operator": "≥", "Kd": 20000}

====

# assay.system: HLA-A*02:03
# test: IEDB peptide-MHC binding, purified MHC/direct/fluorescence; filed as Kd, often an IC50 or EC50 that approximates it; bounds were set here for any values at or beyond the usual limits of such assays
# condition: source organism: Zaire ebolavirus

{"residue.string": "TTIGEWAFW", "assay.system": "HLA-A*02:03", "Kd": "≥ 20 µM"}
{"residue.string": "LSDAIFDDL", "assay.system": "HLA-A*02:03", "Kd": "≥ 20 µM"}

====

# assay.system: HLA-A*26:01
# test: IEDB peptide-MHC binding, purified MHC/competitive/radioactivity; filed as Kd, often an IC50 or EC50 that approximates it; bounds were set here for any values at or beyond the usual limits of such assays
# condition: source organism: SARS coronavirus Tor2
pKd: −log10 of the molar value.

{"residue.string": "SMMGFKMNY", "assay.system": "HLA-A*26:01", "qualifier.operator": "=", "pKd": 5.41}
{"residue.string": "GSVGFNIDY", "assay.system": "HLA-A*26:01", "qualifier.operator": "=", "pKd": 4.99}
{"residue.string": "VFFGYFASHF", "assay.system": "HLA-A*26:01", "qualifier.operator": "=", "pKd": 5.38}
{"residue.string": "EIDETCEHEY", "assay.system": "HLA-A*26:01", "qualifier.operator": "=", "pKd": 6.31}
{"residue.string": "FNATKFPSVY", "assay.system": "HLA-A*26:01", "qualifier.operator": "≤", "pKd": 4.61}
{"residue.string": "TLDESFLGRY", "assay.system": "HLA-A*26:01", "qualifier.operator": "=", "pKd": 6.88}
{"residue.string": "LFVTIYSHL", "assay.system": "HLA-A*26:01", "qualifier.operator": "=", "pKd": 5.96}
{"residue.string": "MADQAMTQMY", "assay.system": "HLA-A*26:01", "qualifier.operator": "=", "pKd": 5.55}
{"residue.string": "NTNPIQLSSY", "assay.system": "HLA-A*26:01", "qualifier.operator": "=", "pKd": 6.46}
{"residue.string": "NYTQHTSSM", "assay.system": "HLA-A*26:01", "qualifier.operator": "=", "pKd": 4.79}
{"residue.string": "KFLTNKLLL", "assay.system": "HLA-A*26:01", "qualifier.operator": "≤", "pKd": 4.21}
{"residue.string": "LTNSVIIMAY", "assay.system": "HLA-A*26:01", "qualifier.operator": "=", "pKd": 5.70}
{"residue.string": "FYGGWHNML", "assay.system": "HLA-A*26:01", "qualifier.operator": "≤", "pKd": 4.11}

====

# assay.system: HLA-A*03:01
# test: IEDB peptide-MHC binding, purified MHC/competitive/fluorescence; filed as Kd, often an IC50 or EC50 that approximates it; bounds were set here for any values at or beyond the usual limits of such assays
# condition: source organism: Shigella dysenteriae Sd197
reported.endpoint: Kd

{"residue.string": "IEDDEIIWV", "reported.endpoint": "Kd", "val": "≥ 20 µM"}

====

# assay.system: HLA-A*11:01
# test: IEDB peptide-MHC binding, purified MHC/direct/fluorescence; filed as Kd, often an IC50 or EC50 that approximates it; bounds were set here for any values at or beyond the usual limits of such assays
# condition: source organism: Influenza A virus (A/camel/Mongolia/1982(H1N1))
pKd: −log10 of the molar value.

{"residue.string": "ELDEIGEDV", "pKd": "≤ 4.70"}

====

# assay.system: HLA-B*46:01
# test: IEDB peptide-MHC binding, purified MHC/competitive/fluorescence; filed as Kd, often an IC50 or EC50 that approximates it; bounds were set here for any values at or beyond the usual limits of such assays
# condition: source organism: Reston ebolavirus

{"residue.string": "GVPPKVVSY", "Kd": "≥ 20 µM"}
{"residue.string": "ALYEENALK", "Kd": "≥ 20 µM"}

====

# assay.system: HLA-A*30:02
# test: IEDB peptide-MHC binding, purified MHC/competitive/radioactivity; filed as Kd, often an IC50 or EC50 that approximates it; bounds were set here for any values at or beyond the usual limits of such assays
# condition: source organism: Dengue virus 3 Martinique/1243/1999

{"residue.string": "CIAIGIITLY", "Kd": "≥ 69.7 µM"}
